Test system: MAGI-CCR5 cells viability, CellTiter-Glo ATP luminescence
ASSAY_NOTES: MAGI-CCR5 and HeLa-R5-16 cytotoxicity, dose response, cytotoxicity control for HIV-1 fusion inhibitor project, cell-based, MAGI and MAGI-HeLa co-culture (AID 2286);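 note: cells exposed to compound for at least 64 h before ATP readout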;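 for viability: 100% = median of DMSO vehicle wells with no ATP signal meaning 0%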
ASSAY_SETUP: measured here: MAGI + HeLa-R5-16 co-culture viability
MEASURED_METRIC: CC50 (µM)
// note: answer is a bare numeric in µM

Give the reported value of CC50 for this record: O=C(N/N=C/c1ccc(-c2ccc(S(=O)(=O)Nc3ncccn3)cc2)o1)c1cc2ccccc2cc1O 32.6

Please list CC50 recorded for the molecule O=C(O)c1ccc(N/N=C/c2ccc(-c3cccc(Cl)c3)o2)cc1 2.83

// fetch CC50 given entry O=C(O)c1cccc(NC(=S)N/N=C/c2ccccc2OCc2cccc(Br)c2)c1 23.9

Using known records, supply CC50 for O=C(O)CN1C(=O)/C(=C\c2cc(Br)ccc2OCc2ccc([N+](=O)[O-])cc2)SC1=S 19.9

###

ASSAY_NOTES: MAGI-CCR5 and HeLa-R5-16 cytotoxicity, dose response, cytotoxicity control for HIV-1 fusion inhibitor project, cell-based, MAGI and MAGI-HeLa co-culture (AID 2286);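 note: cells exposed to compound for at least 64 h before ATP readout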;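 for minimum viability: 100% = median of DMSO vehicle wells with no ATP signal meaning 0%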;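 for viability: 100% = median of DMSO vehicle wells with no ATP signal meaning 0%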
ASSAY_SETUP: MAGI-CCR5 cells viability, CellTiter-Glo ATP luminescence; measured here: MAGI minimum viability across doses; at 6.25 µM; stronger effect = lower value
Please respond with TRUE when measured minimum viability is strictly beneath 90%, and with FALSE in all other cases.

Does this molecule meet the criterion minimum viability < 90%? COc1ccc(OC)c(N2C(=O)/C(=C/c3ccco3)C(=O)NC2=S)c1 TRUE

Decide: minimum viability of COc1cc(/C=C2\SC(=Nc3ccccc3)N(CCc3c[nH]c4ccccc34)C2=O)ccc1OC(C)C(=O)O (centres undefined) strictly below 90%? FALSE

I'd appreciate it if you could check whether O=c1/c(=C\c2cc([N+](=O)[O-])cc([N+](=O)[O-])c2O)sc2nc3ccccc3n12 has minimum viability smaller than 90%. FALSE

# TODO verify minimum viability < 90% strictly for this molecule: O=C(O)c1ccc(/C=N/NC(=O)c2ccc(CN3c4cccc5cccc(c45)S3(=O)=O)cc2)cc1 TRUE

Field: below-cutoff. Rule: recorded minimum viability strictly less than 90%. Subject: O=C(O)c1[nH]c2ccccc2c1C(c1cccc(O)c1)c1c(C(=O)O)[nH]c2ccccc12 TRUE

Lab log: compare recorded minimum viability with 90%; is it strictly lower for CC(C)CS(=O)(=O)C1=NSC2=NC(=O)/C(=C\c3ccc(OC(=O)c4ccco4)cc3)C(=N)N21 ? TRUE

###

ASSAY_NOTES: MAGI-CCR5 and HeLa-R5-16 cytotoxicity, dose response, cytotoxicity control for HIV-1 fusion inhibitor project, cell-based, MAGI and MAGI-HeLa co-culture (AID 2286);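 note: cells exposed to compound for at least 64 h before ATP readout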;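 for minimum viability: 100% = median of DMSO vehicle wells with no ATP signal meaning 0%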;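 for viability: 100% = median of DMSO vehicle wells with no ATP signal meaning 0%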
ASSAY_SETUP: MAGI-CCR5 cells viability, CellTiter-Glo ATP luminescence; measured here: MAGI minimum viability across doses; at 25 µM; stronger effect = lower value
For each record, write down the corresponding minimum viability.
Quick reminder: number only, in %, skip the unit.

Supply minimum viability value. Item: O=C(CSc1nc2ccccc2c(=O)n1Cc1ccccc1)Nc1ccc(Br)cc1C(=O)O 81.4

Please report the measured minimum viability for O=C(O)c1ccc(-c2ccc(/C=c3/sc4nc5ccccc5n4c3=O)o2)cc1Cl 87.5

Answer with the recorded minimum viability for the compound listed here: CC(c1ccccc1)N1C(=O)c2ccc(C(=O)Nc3ccccc3C(=O)O)cc2C1=O (stereo not given) 85.5

Fill in minimum viability for record Cc1ccc(-c2nn(-c3ccccc3)cc2/C=C2\SC(=S)N(CC(=O)O)C2=O)cc1 80.9

Report minimum viability for COc1cc(/C=N/NS(=O)(=O)c2ccc3ccccc3c2)ccc1OCc1ccc(C(=O)O)cc1 85.7

Give recorded minimum viability. Cc1c(CCC(=O)O)c(=O)oc2c(C)c3occ(-c4ccc(Cl)cc4)c3cc12 64

Return minimum viability for the following compound: Cc1cn2c(N)c(C=C3C=C(Cl)C(=O)C(Cl)=C3)c(=O)nc2s1 81.8

For the compound O=C1NN(c2ccc(Cl)c(Cl)c2)C(=O)/C1=C/c1cccc(OC(=O)c2cccs2)c1 , give its measured minimum viability value. 86.1

Identify measured minimum viability associated with O=C(O)/C=C/C(=O)Nc1ccc(C2(c3ccc(NC(=O)/C=C/C(=O)O)cc3)c3ccccc3-c3ccccc32)cc1 88.8

Check the records and state minimum viability for Cc1cc(/C=C2\C(=N)N3N=C(S(C)(=O)=O)SC3=NC2=O)c(C)n1Cc1ccccc1 106

Could you please provide reported minimum viability for O=C(O)COc1ccc(Br)cc1C(c1c(C(=O)O)[nH]c2ccccc12)c1c(C(=O)O)[nH]c2ccccc12 ? Thanks! 88

Please report minimum viability for the following compound: O=C(Nc1cccc(C(F)(F)F)c1)c1cccc(NS(=O)(=O)c2ccc(O)c(C(=O)O)c2)c1 83.3

Dear colleague, please send me the reported minimum viability for COc1cc(/C=C2\C(=N)N3N=C(S(C)(=O)=O)SC3=NC2=O)cc(OC)c1OCCOc1ccc(C)cc1 when you can. 98.3

Return value of minimum viability for input C=CCOC(=O)C1=C(C)N=c2s/c(=C3\C(=O)N(CC(=O)O)c4ccccc43)c(=O)n2C1c1ccc(OC)cc1 (stereo not given) , no commentary. 85.1

Respond only with minimum viability recorded for COc1cc([N+](=O)[O-])cc(/C=N/NC(=O)c2cc(-c3ccccc3)nc3ccccc23)c1O 53.9

Complete the entry with minimum viability for COc1ccc(N=C2S/C(=C\c3ccc(OCC(=O)O)cc3)C(=O)N2CCc2c[nH]c3ccccc23)cc1 90.8

Tell me its minimum viability given COc1cc([N+](=O)[O-])cc(/C=C2/SC(=S)N(Cc3ccccc3)C2=O)c1O as the entry. 5.81

Note down minimum viability recorded for COc1cc(/C=C2/C(=N)N3C(=NC2=O)SN=C3S(C)(=O)=O)ccc1OS(=O)(=O)c1ccccc1 84.7

Please report the measured minimum viability for CCOc1ccc(NC(=NCc2ccc3c(c2)OCO3)SC2CC(=O)N(c3ccc(C(=O)O)cc3)C2=O)cc1 (stereo not given) 84.3

Give the value of minimum viability reported for the following: COc1cc(Cl)cc(C(c2c(C(=O)O)[nH]c3ccccc23)c2c(C(=O)O)[nH]c3ccccc23)c1O 80.5

###

Kindly state CC50 for each of the entries shown.
Tested on: MAGI-CCR5 cells viability, CellTiter-Glo ATP luminescence
ASSAY_NOTES: MAGI-CCR5 and HeLa-R5-16 cytotoxicity, dose response, cytotoxicity control for HIV-1 fusion inhibitor project, cell-based, MAGI and MAGI-HeLa co-culture (AID 2286);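 note: cells exposed to compound for at least 64 h before ATP readout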;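 for viability: 100% = median of DMSO vehicle wells with no ATP signal meaning 0%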
ASSAY_SETUP: measured here: MAGI + HeLa-R5-16 co-culture viability
Number in µM, nothing else.

Give the reported CC50 for this molecule. CCS(=O)(=O)C1=NN2C(=N)/C(=C\c3ccc(OCCOc4cccc(OC)c4)c(OC)c3)C(=O)N=C2S1 40.1

Tell me CC50 reported for COc1cc([N+](=O)[O-])cc(/C=C2/SC(=S)N(Cc3ccccc3)C2=O)c1O 29.2

State its CC50: O=C(Nc1ccccc1Cc1ccccc1)c1ccccc1NS(=O)(=O)c1ccc(Cl)s1 5.85

Return value of CC50 for input CN(C)S(=O)(=O)c1cccc(-c2nn(-c3ccccc3)cc2/C=C2\SC(=S)NC2=O)c1 , no commentary. 25.5

Output CC50 of Brc1ccc(N/N=C(/N=Nc2nn[nH]n2)c2ccccc2)cc1 23.5

Report CC50 for O=C(O)CN1C(=O)/C(=C\c2cc(Br)ccc2OCc2ccc(Cl)cc2Cl)SC1=S 25.6

Give the measured CC50 for O=C1/C(=C\c2ccc(O)c(O)c2)C(c2ccccc2)=NN1c1ccccc1 48.7

Query CC50 for COc1cc(/C=C2/SC(=S)NC2=O)ccc1OS(=O)(=O)c1ccc(C)cc1 28.9

Answer with reported CC50 of CCOc1cc(/C=C2\C(=N)N3N=C(S(C)(=O)=O)SC3=NC2=O)ccc1OCCOc1cccc(OC)c1 43.2

Tell me its CC50 given O=C(Nc1ccc(Oc2ccc(Cl)cc2)c(Cl)c1)c1cc(I)cc(I)c1O as the entry. 25.2

Provide only the value of recorded CC50 for COc1cccc(OCCOc2ccc(/C=C3\C(=N)N4N=C(S(C)(=O)=O)SC4=NC3=O)cc2OC)c1 35.8

###

ASSAY_NOTES: MAGI-CCR5 and HeLa-R5-16 cytotoxicity, dose response, cytotoxicity control for HIV-1 fusion inhibitor project, cell-based, MAGI and MAGI-HeLa co-culture (AID 2286);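 note: cells exposed to compound for at least 64 h before ATP readout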;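 for viability: 100% = median of DMSO vehicle wells with no ATP signal meaning 0%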
ASSAY_SETUP: MAGI-CCR5 cells viability, CellTiter-Glo ATP luminescence; at 50 µM (top of the series)
MEASURED_METRIC: viability (%)
# value in %; strip the unit string

// Input: COC1C(OC(=O)c2ccc(C)[nH]2)C(O)C(Oc2ccc3c(O)c(NC(=O)c4ccc(O)c(CC=C(C)C)c4)c(=O)oc3c2Cl)OC1(C)C (stereo not given) . Output its viability only. 81.8

Give viability for the following compound: O=C(O)CN1C(=O)/C(=C\c2cc(Br)ccc2OCc2ccccc2Cl)SC1=S 106

Fill in reported viability for this entry: CCOc1ccc(C2C(C(=O)Nc3ccccc3)=C(C)N=c3s/c(=C/c4cccc(OCC(=O)O)c4)c(=O)n32)cc1 (stereo not given) 96.2

Write down viability measured for item O=C1NN(c2ccc(Cl)c(Cl)c2)C(=O)/C1=C/c1cccc(OC(=O)c2cccs2)c1 90.3

Specify measured viability for O=C(O)/C=C/C(=O)Nc1ccc(C2(c3ccc(NC(=O)/C=C/C(=O)O)cc3)c3ccccc3-c3ccccc32)cc1 . 93.2

Look up and report measured viability for this entry: Cc1cc(N2C(=O)C(O)=C(C(=O)c3cc4ccccc4o3)C2c2ccc(Cl)cc2)no1 (stereo not given) 83.2

Specify viability for N#Cc1c(-c2ccccc2)nc(SCc2cccc(C(F)(F)F)c2)[nH]c1=O and stop. 82.1

Given the compound O=C(O)CSc1ncnc2c1sc1nc(-c3ccccc3)c3c(c12)CCC3 , write its reported viability. 98.6

Specify reported viability for the compound shown: O=C(O)CN1C(=O)/C(=C\c2cc(Br)ccc2OCc2ccc(Cl)cc2)SC1=S 90.5

Read off the recorded viability for C=CCOc1ccc(C(c2c(C(=O)O)[nH]c3ccccc23)c2c(C(=O)O)[nH]c3ccccc23)cc1 91.1
